Reference for the values: the supplement of paper PMC8671470

- Tested on: KU-812
- TEST DESCRIPTION: cell viability (% survival relative to DMSO control, bortezomib = 0%); higher = less cytotoxic
- CONDITION PARAMETERS: 1000 nM; 72 h
Each item that follows carries a reported cell viability.
EXPERIMENTAL READOUT: cell viability (%)

1) C[C@]12CC[C@H](O)CC1=CC[C@@H]1[C@@H]2CC[C@]2(C)C(c3cccnc3)=CC[C@@H]12: 108
2) O=C(c1ccc(OCCN2CCCCC2)cc1)c1c(-c2ccc(O)cc2)sc2cc(O)ccc12: 93
3) CN(C)c1nc(O)c2[nH]cnc2n1 [2-Dimethylamino-6-hydroxypurine]: 94.2
4) C1CCc2nnc(C34CC5CC(CC(C5)C3)C4)n2CC1: 78.7
5) O=C(O)c1nn(Cc2ccc(Cl)cc2Cl)c2ccccc12: 97
6) COc1c(C)c2c(c(O)c1C/C=C(\C)CCC(=O)O)C(=O)OC2: 51.7
7) CCN(CC)CCN(Cc1ccc(-c2ccc(C(F)(F)F)cc2)cc1)C(=O)Cn1c(SCc2ccc(F)cc2)nc(=O)c2c1CCC2: 80.7
8) Oc1cc(Cl)ccc1Oc1ccc(Cl)cc1Cl: 98
9) NC(=O)c1ncn([C@@H]2O[C@H](CO)[C@@H](O)[C@H]2O)n1: 104
10) CC(C)C[C@H](NC(=O)[C@@H](O)[C@H](N)Cc1ccccc1)C(=O)O: 97.4
11) O=C(O)C(Cl)Cl [Dichloroacetate]: 108
12) CC(Cc1ccc(O)c(O)c1)C(C)Cc1ccc(O)c(O)c1 (stereo not drawn): 102
13) Nc1ncnc2c1ncn2[C@@H]1O[C@H](CSCC[C@H](N)C(=O)O)[C@@H](O)[C@H]1O: 104

###

- Tested on: THP-1
- TEST DESCRIPTION: cell viability (% survival relative to DMSO control, bortezomib = 0%); higher = less cytotoxic
- CONDITION PARAMETERS: 10 nM; 72 h
cell viability values by entry
EXPERIMENTAL READOUT: cell viability (%)

1) O=C(O)CCc1ccc(NCc2cccc(Oc3ccccc3)c2)cc1: 101
2) Sc1ncnc2nc[nH]c12: 106
3) CCCc1nn(C)c2c(O)nc(-c3cc(S(=O)(=O)N4CCN(C)CC4)ccc3OCC)nc12: 99.4
4) C[C@]12O[C@H](C[C@]1(O)CO)n1c3ccccc3c3c4c(c5c6ccccc6n2c5c31)CNC4=O: 105

###

- Tested on: LAMA-84
- TEST DESCRIPTION: cell viability (% survival relative to DMSO control, bortezomib = 0%); higher = less cytotoxic
- CONDITION PARAMETERS: 100 nM; 72 h
EXPERIMENTAL READOUT: cell viability (%)

1. CCCc1nn(C)c2c(O)nc(-c3cc(S(=O)(=O)N4CCN(C)CC4)ccc3OCC)nc12 [Sildenafil]: 92.1
2. CC(/C=C1\SC(=S)N(CC(=O)O)C1=O)=C\c1ccccc1 [Epalrestat]: 82.6
3. Clc1ccc(COC(Cn2ccnc2)c2ccc(Cl)cc2Cl)cc1 (centres undefined) [Econazole]: 91.8
4. O=C(O)C(Cl)Cl [Dichloroacetate]: 98

###

Overview of reported IC50 (cell viability) across a group of compounds:
- System: MOLM-13
- CONDITION PARAMETERS: 72 h
EXPERIMENTAL READOUT: IC50 (cell viability)

1) OCCN1CCN(CCCN2c3ccccc3Sc3ccc(Cl)cc32)CC1 [Perphenazine]: 5.77 µM
2) Cc1coc2c1C(=O)C(=O)c1c-2ccc2c(C)cccc12 [Tanshinone I]: > 10 µM
3) CN(C)c1nc(O)c2[nH]cnc2n1 [2-Dimethylamino-6-hydroxypurine]: > 10 µM
4) O=C(O)c1nn(Cc2ccc(Cl)cc2Cl)c2ccccc12 [Lonidamine]: > 10 µM
5) C#Cc1cnc(O)nc1O [Eniluracil]: > 10 µM
6) N[C@](CCCCB(O)O)(CCN1CCCCC1)C(=O)O [Arginase inhibitor 1]: > 10 µM
7) O=C(COc1ccc(C(=O)c2ccccc2)cc1)NC1CCN(Cc2ccccc2)CC1 [AdipoRon]: > 10 µM
8) Clc1ccc(COC(Cn2ccnc2)c2ccc(Cl)cc2Cl)cc1 (centres undefined) [Econazole]: 0.925 µM
9) O=C(O)c1cc2sccc2[nH]1 [4H-thieno[3,2-b]pyrrole-5-carboxylic acid]: > 10 µM
10) C1CCC(C(CC2CCCCN2)C2CCCCC2)CC1.O=C(O)/C=C\C(=O)O (centres undefined) [Perhexiline]: 2.66 µM
11) O=C(O)C(Cl)Cl [Dichloroacetate]: > 10 µM
12) COc1cc2c(NC3CCN(C)CC3)nc(N3CCCN(C)CC3)nc2cc1OCCCN(C)C [UNC0224]: > 10 µM
13) CCOC(=O)N1c2ccc(C(F)(F)F)cc2[C@@H](N(Cc2cc(C(F)(F)F)cc(C(F)(F)F)c2)C(=O)OC)C[C@H]1CC [Torcetrapib]: > 10 µM
14) C1CCc2nnc(C34CC5CC(CC(C5)C3)C4)n2CC1 [MERCK-544]: > 10 µM
